procedure.details: Half-life in human liver microsomes
readout.name: half-life

Notebook: N=C(N)NCCCC(N)C(=O)Nc1ccc(Oc2ccc(S(=O)(=O)CC3CS3)cc2)cc1 (stereo not shown) [Compound 11d] , half-life read as > 1 h

* * *

tested.on: MMP-7 (Homo sapiens, UniProt P09237)
Sequence (P09237 95-267, species assumed): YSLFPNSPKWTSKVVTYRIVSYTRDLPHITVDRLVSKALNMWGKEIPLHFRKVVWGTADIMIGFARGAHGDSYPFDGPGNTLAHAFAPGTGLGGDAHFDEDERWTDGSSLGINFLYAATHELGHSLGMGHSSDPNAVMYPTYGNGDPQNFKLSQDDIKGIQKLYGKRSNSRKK
readout.name: pKi
Convention used: pKi is expressed as -log10 of the molar concentration.

Entry Nc1ccc(Oc2ccc(S(=O)(=O)CC3CS3)cc2)cc1O (stereo not shown) , tested on MMP-7 (Homo sapiens, UniProt P09237), has a reported pKi of 3.94
